# ASSAY_PROTOCOL: Drug concentration in Wistar rat urine at 4 mg/kg, iv after 3 hrs by LC/MS analysis
# Format: ADME, organism-based
# RUN_CONDITIONS: read-out: Ct
ENDPOINT_NAME: concentration at 3 h (µM)
Answers are plain numbers, in µM.

Entry under test: CCCc1nnc2c(Oc3ccc(NS(=O)(=O)c4cc(Cl)ccc4OC)cc3)nc3cc(F)c(F)cc3n12 . Its concentration at 3 h was 6

---

# MEASUREMENT_TARGET: Urea transporter 2 (Rattus norvegicus, UniProt Q62668)
# Sequence (Q62668 whole entry): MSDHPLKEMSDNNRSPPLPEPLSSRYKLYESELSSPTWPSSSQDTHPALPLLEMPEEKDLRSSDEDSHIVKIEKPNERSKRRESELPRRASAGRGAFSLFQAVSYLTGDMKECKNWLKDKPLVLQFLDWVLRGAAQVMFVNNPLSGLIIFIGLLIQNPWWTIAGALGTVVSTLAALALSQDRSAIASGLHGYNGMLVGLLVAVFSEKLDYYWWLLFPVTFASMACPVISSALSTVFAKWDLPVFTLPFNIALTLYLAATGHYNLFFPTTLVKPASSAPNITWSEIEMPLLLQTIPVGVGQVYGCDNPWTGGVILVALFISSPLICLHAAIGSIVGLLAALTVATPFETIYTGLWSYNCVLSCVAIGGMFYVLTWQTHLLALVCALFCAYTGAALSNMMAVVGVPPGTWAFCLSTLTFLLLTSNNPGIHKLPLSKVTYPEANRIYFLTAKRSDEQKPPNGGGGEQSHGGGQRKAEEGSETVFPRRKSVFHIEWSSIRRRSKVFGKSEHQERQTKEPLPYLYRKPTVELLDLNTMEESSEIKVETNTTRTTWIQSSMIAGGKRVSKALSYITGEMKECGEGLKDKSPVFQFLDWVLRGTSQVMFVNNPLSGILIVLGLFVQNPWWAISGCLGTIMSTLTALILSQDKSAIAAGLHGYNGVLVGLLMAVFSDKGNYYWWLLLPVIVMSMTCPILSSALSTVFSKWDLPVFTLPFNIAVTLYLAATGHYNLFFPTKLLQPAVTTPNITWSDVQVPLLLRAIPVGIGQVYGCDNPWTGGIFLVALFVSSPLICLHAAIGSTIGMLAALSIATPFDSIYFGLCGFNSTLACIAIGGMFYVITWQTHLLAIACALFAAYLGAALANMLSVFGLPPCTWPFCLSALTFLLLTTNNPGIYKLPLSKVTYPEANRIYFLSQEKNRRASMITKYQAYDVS
# ASSAY_PROTOCOL: Inhibition of rat UT-A1 expressed in MDCK cells incubated for 15 mins by fluorescence plate reader assay
Would you mind telling me the reported IC50 of each entry?

[
  {
    "COMPOUND_STRUCTURE": "COc1ccc(Cl)c(S(=O)(=O)Nc2ccc(Oc3nc4ccccc4n4cnnc34)cc2)c1",
    "IC50": "> 20 µM"
  },
  {
    "COMPOUND_STRUCTURE": "CCc1nnc2c(Oc3ccc(NS(=O)(=O)c4cc(Cl)ccc4OC)cc3)nc3ccccc3n12",
    "IC50": "0.5 µM"
  }
]

Entry under test: COc1ccc(Cl)cc1S(=O)(=O)Nc1ccc(Oc2nc3ccccc3n3c(C)nnc23)cc1 . Its IC50 was > 20 µM
